I'd appreciate it if you could supply log10 IC50 values for the items below.
Target: human lung tryptase
Assay: β-Tryptase In-Vitro Enzyme Assay
Details: human lung tryptase 1 nM, substrate H-D-HHT-Ala-Arg-pNa 500 μM, pH 7.4, room temperature
Scale: decimal log of IC50, IC50 in nM.

Enquiry: Provide measured log10 IC50 on human lung tryptase for CSc1cccc(C(=O)N2CCC3(CC2)COc2ccc(CN)cc23)c1 [Cpd 57] please.
Return: 2.26

Enquiry: Provide measured log10 IC50 on human lung tryptase for Cc1nn(-c2ccc(C(=O)N3CCC4(CC3)COc3ccc(CN)cc34)o2)c(C)c1Cl [Cpd 221] please.
Return: 2.74

Enquiry: Provide measured log10 IC50 on human lung tryptase for NCc1ccc2c(c1)C1(CCN(C(=O)c3cc4ccccc4[nH]3)CC1)CO2 [Cpd 285] please.
Return: 2.56

Enquiry: Provide measured log10 IC50 on human lung tryptase for NCc1ccc2c(c1)C1(CCN(C(=O)c3ccc(C#Cc4ccccc4)o3)CC1)CN2C(N)=O [Cpd 325] please.
Return: 1.40

Enquiry: Provide measured log10 IC50 on human lung tryptase for NCc1ccc2c(c1)C1(CCN(C(=O)C3c4ccccc4-c4ccccc43)CC1)CO2 [Cpd 289] please.
Return: 3.15

Enquiry: Provide measured log10 IC50 on human lung tryptase for COC(=O)N1CC2(CCN(C(=O)c3ccc(C#Cc4ccccc4)o3)CC2)c2cc(CN)ccc21 [Cpd 323] please.
Return: 2.04

Enquiry: Provide measured log10 IC50 on human lung tryptase for Cc1cc(C(=O)NCc2ccc(C(=O)N3CCC4(CC3)COc3ccc(CN)cc34)o2)c(C)o1 [Cpd 156] please.
Return: 2.11

Enquiry: Provide measured log10 IC50 on human lung tryptase for NCc1ccc2c(c1)C1(CCN(C(=O)c3ccc(Cl)c(F)c3)CC1)CO2 [Cpd 46] please.
Return: 2.04

----------
Biological target: human lung tryptase
Assay: β-Tryptase In-Vitro Enzyme Assay
Conditions: human lung tryptase 1 nM, substrate H-D-HHT-Ala-Arg-pNa 500 μM, pH 7.4, room temperature
Threshold 100 nM: IC50 strictly smaller gives label 1, otherwise label 0.

Enquiry: Below 100 nM on IC50? Entry `NCc1ccc2c(c1)C1(CCN(C(=O)c3ccc(Cl)c(Cl)c3)CC1)CO2`
Return: label 1

Enquiry: Below 100 nM on IC50? Entry `COC(=O)CN1CC2(CCN(C(=O)c3ccc(C#Cc4ccccc4)o3)CC2)c2cc(CN)ccc21`
Return: label 1

Enquiry: Below 100 nM on IC50? Entry `Cc1cccc(CCC(=O)N2CCC3(CC2)COc2ccc(CN)cc23)c1`
Return: label 0

Enquiry: Below 100 nM on IC50? Entry `Cc1cccc2c(C(=O)N3CCC4(CC3)COc3ccc(CN)cc34)c[nH]c12`
Return: label 0

Enquiry: Below 100 nM on IC50? Entry `CC(=O)N1CC2(CCN(C(=O)c3ccc(C#Cc4ccccc4)o3)CC2)c2cc(CN)ccc21`
Return: label 1

Enquiry: Below 100 nM on IC50? Entry `CS(=O)(=O)CS(=O)(=O)N1CC2(CCN(C(=O)c3ccc(C#Cc4ccccc4)o3)CC2)c2cc(CN)ccc21`
Return: label 1

Enquiry: Below 100 nM on IC50? Entry `NCc1ccc2c(c1)C1(CCN(C(=O)c3cc(C#Cc4ccccc4)ccn3)CC1)CO2`
Return: label 1

Enquiry: Below 100 nM on IC50? Entry `CCOCCOc1cccc(/C=C/C(=O)N2CCC3(CC2)COc2ccc(CN)cc23)c1`
Return: label 0

Enquiry: Below 100 nM on IC50? Entry `NCc1ccc2c(c1)C1(CCN(C(=O)c3ccc(CCc4ccccc4)o3)CC1)CO2`
Return: label 1

Enquiry: Below 100 nM on IC50? Entry `CSc1ccc(C(=O)N2CCC3(CC2)COc2ccc(CN)cc23)s1`
Return: label 1

Enquiry: Below 100 nM on IC50? Entry `NCc1ccc2c(c1)C1(CCN(C(=O)C3CCCCC3)CC1)CO2`
Return: label 0

Enquiry: Below 100 nM on IC50? Entry `NCc1ccc2c(c1)C1(CCN(C(=O)c3ccc(F)c(F)c3)CC1)CO2`
Return: label 0

Enquiry: Below 100 nM on IC50? Entry `COC(=O)CCN1CC2(CCN(C(=O)c3ccc(C#Cc4ccccc4)o3)CC2)c2cc(CN)ccc21`
Return: label 0

Enquiry: Below 100 nM on IC50? Entry `NCc1ccc2c(c1)C1(CCN(C(=O)Cc3cccc(Cl)c3)CC1)CO2`
Return: label 0

Enquiry: Below 100 nM on IC50? Entry `Cc1ccc(-c2nc(C)c(C(=O)N3CCC4(CC3)COc3ccc(CN)cc34)s2)cc1`
Return: label 0

Enquiry: Below 100 nM on IC50? Entry `Cc1c(C(=O)N2CCC3(CC2)COc2ccc(CN)cc23)oc2cc(-c3ccccc3)ccc12`
Return: label 1

Enquiry: Below 100 nM on IC50? Entry `NCc1ccc2c(c1)C1(CCN(C(=O)c3ccc(-c4ccccn4)s3)CC1)CO2`
Return: label 0

Enquiry: Below 100 nM on IC50? Entry `NCc1ccc2c(c1)C1(CCN(C(=O)c3ccc(Cl)cc3)CC1)CO2`
Return: label 0

----------
Biological target: human lung tryptase
Test: β-Tryptase In-Vitro Enzyme Assay
Settings: human lung tryptase 1 nM, substrate H-D-HHT-Ala-Arg-pNa 500 μM, pH 7.4, room temperature
property.measured: log10(IC50) (log10 of the value in nM)
Scale: decimal log of IC50, IC50 in nM.

Enquiry: Give recorded log10(IC50). `NCc1ccc2c(c1)C1(CCN(C(=O)c3csc(-c4ccncc4)n3)CC1)CO2`
Return: 2.88

Enquiry: Give recorded log10(IC50). NCc1ccc2c(c1)C1(CCN(C(=O)/C=C/c3ccccc3)CC1)CO2 [Cpd 112]
Return: 2.26

Enquiry: Give recorded log10(IC50). `Cc1cc(C(=O)N2CCC3(CC2)COc2ccc(CN)cc23)ccc1Cl`
Return: 2.15

Enquiry: Give recorded log10(IC50). `NCc1ccc2c(c1)C1(CCN(C(=O)c3cccc(C(F)(F)F)c3)CC1)CO2`
Return: 2.91

Enquiry: Give recorded log10(IC50). `COc1ccc(CC(=O)N2CCC3(CC2)COc2ccc(CN)cc23)cc1OC`
Return: 2.89

Enquiry: Give recorded log10(IC50). `Cc1ccc(C#Cc2ccc(C(=O)N3CCC4(CC3)COc3ccc(CN)cc34)o2)cc1`
Return: 0.92

----------
I'd appreciate it if you could supply pIC50 values for the items below.
Molecular target: human lung tryptase
Experiment: β-Tryptase In-Vitro Enzyme Assay
Settings: human lung tryptase 1 nM, substrate H-D-HHT-Ala-Arg-pNa 500 μM, pH 7.4, room temperature
// pIC50: -log10(molar conc.)

Enquiry: Give recorded pIC50. `CC(C)(C)c1ccc(OCc2ccc(C(=O)N3CCC4(CC3)COc3ccc(CN)cc34)o2)cc1`
Return: 6.36

Enquiry: Give recorded pIC50. `CS(=O)(=O)N1CC2(CCN(C(=O)c3ccc(C#Cc4ccccc4)o3)CC2)c2cc(CN)ccc21`
Return: 8.74

Enquiry: Give recorded pIC50. `COc1cc(CC(=O)N2CCC3(CC2)COc2ccc(CN)cc23)ccc1OCc1ccccc1`
Return: 6.21

Enquiry: Give recorded pIC50. `NCc1ccc2c(c1)C1(CCN(C(=O)c3ccc(C#Cc4cccc5ccccc45)o3)CC1)CO2`
Return: 7.59

----------
Biological target: human lung tryptase
Assay: β-Tryptase In-Vitro Enzyme Assay
Conditions: human lung tryptase 1 nM, substrate H-D-HHT-Ala-Arg-pNa 500 μM, pH 7.4, room temperature
property.measured: log10 IC50 (log10 of the value in nM)
Scale: decimal log of IC50, IC50 in nM.

Enquiry: Give recorded log10 IC50. `NCc1ccc2c(c1)C1(CCN(C(=O)c3ccc(C#Cc4ccccc4)o3)CC1)CN2C(=O)Cc1nnn[nH]1`
Return: 1.40

Enquiry: Give recorded log10 IC50. `NCc1cc2c(cc1F)OCC21CCN(C(=O)c2ccc(Cl)c(Cl)c2)CC1`
Return: 3.86

Enquiry: Give recorded log10 IC50. `NCc1ccc2c(c1)C1(CCN(C(=O)c3nc(-c4cccs4)no3)CC1)CO2`
Return: 0.78

Enquiry: Give recorded log10 IC50. `NCc1ccc2c(c1)C1(CCN(C(=O)c3cc4c(s3)CCCCC4)CC1)CO2`
Return: 2.64

Enquiry: Give recorded log10 IC50. `COc1ccc(-c2cccc(C(=O)N3CCC4(CC3)COc3ccc(CN)cc34)c2)cc1`
Return: 1.98

Enquiry: Give recorded log10 IC50. `NCc1ccc2c(c1)C1(CCN(C(=O)c3ccc(C(F)(F)F)cc3)CC1)CO2`
Return: 2.96

Enquiry: Give recorded log10 IC50. `Cc1cccc(C(=O)N2CCC3(CC2)COc2ccc(CN)cc23)c1`
Return: 2.67

Enquiry: Give recorded log10 IC50. `NCc1ccc2c(c1)C1(CCN(C(=O)C3c4ccccc4Oc4ccccc43)CC1)CO2`
Return: 3.79
